System: Trypanosoma brucei brucei
Protocol Notes: Trypanocidal activity against bloodstream stage of Trypanosoma brucei brucei assessed as inhibition of proliferation after 72 hrs
Format: functional, organism-based
Exercise: for every item that follows, state its recorded EC50.
Numbers only, in µM.

Worked examples follow.
smiles=CCc1ccccc1C(=O)Nc1c[nH]nc1C(=O)N[C@H]1CC[C@H](OC)CC1 reported_endpoint=EC50 number=2.8
smiles=COCCNC(=O)c1n[nH]cc1NC(=O)c1c(OC)cccc1OC reported_endpoint=EC50 number=43

Record summary for "CO[C@H]1CC[C@H](NC(=O)c2n[nH]cc2NC(=O)c2ccc(-c3ccccc3)o2)CC1" : reported EC50 = 0.3

FYI, the data here is from ChEMBL document CHEMBL3352013.
